Test system: primary human hepatic stellate cells (donor 1)
PROTOCOL_SUMMARY: scaled lipid accumulation score (0 = DMSO-like, 1 = nortriptyline-like); higher = stronger HSC inactivation (lipid re-accumulation), active = hit call of the paper
APPLIED_CONDITIONS: library stock concentration: 10 mM; 48 h
Among all 5,800 compounds or so, about 620 (11%) showed activity.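 Rule for the calls: active = score above a cut-off or among the top three wells of a plate; in these data no inactive exceeds 0.85.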 What follows is part of a selection rich in actives, with near analogues and random picks from the rest.
Parameter call: string, one of t for active, f for inactive

Field: example entries. Status: answers known.
{"COMPOUND": "Cc1onc(O)c1C[C@H](N)C(=O)O", "CLASS_NAME": "f"}
{"COMPOUND": "CC(=O)C1=C(O)[C@@H]2[C@H]3c4c[nH]c5cccc(c45)C[C@H]3C(C)(C)N2C1=O", "CLASS_NAME": "f"}
{"COMPOUND": "Cl.Cl.Fc1ccc(C(OCCN2CCN(CCCc3ccccc3)CC2)c2ccc(F)cc2)cc1", "CLASS_NAME": "t"}

Kindly consider the entry below.
Q: Could you please tell me the result logged for C[C@@H]1O[C@@H](O[C@H]2C[C@@H](O)[C@]3(CO)[C@@H]4C(CC[C@]3(O)C2)[C@@]2(O)CC[C@H](C3COC(=O)C3)[C@@]2(C)C[C@H]4O)[C@H](O)[C@H](O)[C@H]1O (some centres undefined) [Dihydroouabain] in this assay?
A: t
